Kd values by entry
# SYSTEM NAME: T1, Human ANGPTL4(26-406)-FLAG-His6-Avi (human, UniProt Q9BY76 24-406, biotin on the C-terminal Avi tag (BirA) where the protein is immobilised)
# T1 construct: the text calls it 20 amino acids), then QP, ANGPTL4 26-406 and FLAG-His6-Avi; the signal peptide is left out here; also called full length human ANGPTL4; hANGPTL4
# T1 sequence: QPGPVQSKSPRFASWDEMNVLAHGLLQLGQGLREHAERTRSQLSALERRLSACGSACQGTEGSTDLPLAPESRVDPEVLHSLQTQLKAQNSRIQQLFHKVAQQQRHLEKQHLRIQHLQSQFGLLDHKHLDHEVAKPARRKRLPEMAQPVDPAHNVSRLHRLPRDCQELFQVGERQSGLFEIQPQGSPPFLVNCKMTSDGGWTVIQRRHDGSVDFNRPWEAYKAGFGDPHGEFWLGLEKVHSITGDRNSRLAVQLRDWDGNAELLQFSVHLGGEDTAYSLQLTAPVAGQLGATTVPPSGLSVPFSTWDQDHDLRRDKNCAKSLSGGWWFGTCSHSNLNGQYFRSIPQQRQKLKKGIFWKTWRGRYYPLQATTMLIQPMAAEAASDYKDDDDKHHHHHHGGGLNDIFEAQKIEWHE
# EXPERIMENT DESCRIPTION: SET (solution equilibrium titration), MSD detection, IgG
Give just the numeric value; nM need not be written.

Example entries begin here.
NEG310 (antibody, human IgG1, kappa, V domains shown, humanized, hIgG1/kappa, parental antibody 17B1) VH: QVQLVQSGAEVKKPGASVKVSCKASGYTFTSYTMHWVRQAPGQGLEWMGYINPSSGYTKYNQKFQGRVTMTADKSTSTAYMELSSLRSEDTAVYYCAEGWLLLAMDYWGQGTLVTVSS VL: EAVVTQSPATLSLSPGERATLSCRSSTGAVTTSNYAIWVQEKPGQAPRGLIGGTNNRAPGIPARFSGSLSGDDATLTISSLQPEDFAVYFCALWYSDHWVFGQGTKVEIKR    0.021
NEG319 (antibody, human IgG1, kappa, V domains shown, humanized, hIgG1/kappa, parental antibody 14P18) VH: QVQLVQSGAEVKKPGASVKVSCKASGYTFTSFWITWVRQAPGQGLEWMGDIYPGGANTNYNEKLQGRVTLTVDTSTSTAYMELRSLRSDDTAVYYCARSPPQVGPFDYWGQGTLVTVSS VL: DIQMTQSPSSLSASVGDRVTITCQASEYIINWLAWYQQKPGKAPKLLISGATGLETGVPSRFSGSGSGKDYTFTISSLQPEDIATYYCQQYWSIPWTFGQGTKLEIKR    0.016
NEG278 (antibody, human IgG1, kappa, V domains shown, humanized, hIgG1/kappa, parental antibody 19C16) VH: QVQLVQSGAEVKKPGASVKVSCKASAYTFTSSWMQWVRQAPGQGLEWMGEIDPSDNYANYNQKFQGRVTLTVDTSTSTAYMELSSLRSEDTAVYYCASGSYFSNFFDYWGQGTLVTVSS VL: EIVMTQSPATLSVSPGERATLSCKASQDIGSNLNWLQQKPGQAPRRLIYAASVREPGIPARFSGSRSGSEYTLTISSLQSEDFAVYYCLQYASSPWTFGQGTKVEIKR    0.015
NEG318 (antibody, human IgG1, kappa, V domains shown, humanized, hIgG1/kappa, parental antibody 14P18) VH: QVQLVQSGAEVKKPGASVKVSCKASGYTFTSFWITWVRQAPGQGLEWMGDIYPGGATTNYNEKLQGRVTLTVDTSTSTAYMELRSLRSDDTAVYYCARSPPQVGPFDYWGQGTLVTVSS VL: DIQMTQSPSSLSASVGDRVTITCQASDYIYHWLAWYQQKPGKAPKLLISGASSLETGVPSRFSGSGSGKDYTFTISSLQPEDIATYYCQQYWSIPWTFGQGTKLEIKR    0.009
NEG315 (antibody, human IgG1, kappa, V domains shown, humanized, hIgG1/kappa, parental antibody 37P1) VH: QVQLVQSGAEVKKPGASVKVSCKASGYTFTNYWITWVRQAPGQGLEWMGDFYPGGGNTNYNAKLQGRVTLTVDTSTSTAYMELRSLRSDDTAVYYCARSPPQVAPFDYWGQGTLVTVSS VL: DIQMTQSPSSLSASVGDRVTITCQASEYIYNWLGWYQQKPGKAPKLLISGASGLETGVPSRFSGSGSGKDYTFTISSLQPEDIATYYCQQYWSTPWTFGQGTKLEIKR    0.012

Kd in this record for NEG313 (antibody, human IgG1, kappa, V domains shown, humanized, hIgG1/kappa, parental antibody 37P1) VH: QVQLVQSGAEVKKPGASVKVSCKASGYTFNNYWITWVRQAPGQGLEWMGDFYPGGGSTNYNAKLQGRVTLTVDTSTSTAYMELRSLRSDDTAVYYCARSPPQVAPFDYWGQGTLVTVSS VL: DIQMTQSPSSLSASVGDRVTITCQASDYIYHWLGWYQQKPGKAPKLLISGASGLETGVPSRFSGSGSGKDYTFTISSLQPEDIATYYCQQYWSTPWTFGQGTKLEIKR : 0.009
